clearance values, listed per item
experiment: Clearance in Beagle dog at 0.5 mg/kg, iv administered as single dose; type: ADME, organism-based, Canis lupus familiaris; conditions: in vivo
The reply should contain only the number, in mL/min/kg.

>>> print(df.to_string())
                         compound_structure  value_kind  recorded_number
0  Cn1c(=O)n(CC(C)(C)C)c2ccc(N3C[C@@H]4CC[C@H]3CN4C(=O)c3csnn3)nc21   clearance               14

Moving on to another compound below.
Could you tell me which clearance is on file for Cn1c(=O)n(CC(C)(C)C)c2ccc(N3C[C@@H]4CC[C@H]3CN4C(=O)c3ccon3)nc21 ? 7

###

Listing of recorded bioavailability by entry.
assay: Oral bioavailability in Wistar Hannover rat at 10 mg/kg administered as single dose; assay type: ADME, organism-based; conditions: Wistar Hannover, in vivo
Give just the number in %; leave the unit off.

In [3]: df
Out[3]:
                                   compound  recorded_number
0  Cn1c(=O)n(CC(C)(C)C)c2ccc(N3CC4CCC3CN4C(=O)c3ccccc3)nc21 (racemic)               10

Reported bioavailability, compound Cn1c(=O)n(CC(C)(C)C)c2ccc(N3C[C@@H]4CC[C@H]3CN4C(=O)c3ccon3)nc21 : ____ 72

###

biological target: CYP3A4 (Homo sapiens); assay: Inhibition of CYP3A4 in human liver microsomes at 10 uM; assay type: ADME
Sequence (P08684 whole entry): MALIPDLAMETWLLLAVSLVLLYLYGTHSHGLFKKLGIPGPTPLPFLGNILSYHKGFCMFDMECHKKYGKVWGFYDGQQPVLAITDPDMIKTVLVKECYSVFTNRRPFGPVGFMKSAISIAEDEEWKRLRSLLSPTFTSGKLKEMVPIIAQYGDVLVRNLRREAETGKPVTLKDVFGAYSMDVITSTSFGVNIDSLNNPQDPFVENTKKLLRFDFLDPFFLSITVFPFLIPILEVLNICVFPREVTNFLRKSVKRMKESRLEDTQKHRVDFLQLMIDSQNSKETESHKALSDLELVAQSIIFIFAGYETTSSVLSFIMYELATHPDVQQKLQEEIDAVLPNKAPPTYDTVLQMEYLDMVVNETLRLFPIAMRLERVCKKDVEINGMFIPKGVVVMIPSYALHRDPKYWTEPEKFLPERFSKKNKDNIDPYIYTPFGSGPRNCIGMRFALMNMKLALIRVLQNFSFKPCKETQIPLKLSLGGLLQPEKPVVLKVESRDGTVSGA
value_kind: inhibition at 10 µM (%)
Form entry: value (%) — number only.

Before answering, review these 2 worked examples.
In [3]: df
Out[3]:
                         compound_structure  units  recorded_number
0  Cn1c(=O)n(CC(C)(C)C)c2ccc(C3CCN(C(=O)c4ccon4)CC3)nc21      %                7
1  Cn1c(=O)n(CC(C)(C)C)c2ccc(N3C[C@@H]4CC[C@H]3CN4C(=O)c3ccon3)nc21      %               73

# query: inhibition at 10 µM of entry Cn1c(=O)n(CC(C)(C)C)c2ccc(C3=C[C@@H]4CC[C@H]3CN4C(=O)c3ccon3)nc21 6

###

target: CYP3A4 (Homo sapiens); assay: Time dependent inhibition of CYP3A4 in human liver microsomes; type: ADME; conditions: human, liver microsomes
value_kind: kinact (s⁻¹)
Response body: numeric value in s⁻¹, unit text excluded.

Report kinact for Cn1c(=O)n(CC(C)(C)C)c2ccc(N3C[C@@H]4CC[C@H]3CN4C(=O)c3ccon3)nc21 please. 0.00107

###

Listed below: CL free values for each entry.
tested on: Rattus norvegicus; assay: Fraction unbound adjusted clearance in Wistar Hannover rat at 2 mg/kg, iv administered as single dose; format: ADME, organism-based; settings: in vivo
Field note: include the unit after the figure.

In [3]: df
Out[3]:
                                   molecule   target_or_system         result
0  Cn1c(=O)n(CC(C)(C)C)c2ccc(N3C[C@@H]4CC[C@H]3CN4C(=O)c3ccon3)nc21  Rattus norvegicus  4.7 mL/min/kg
1  Cn1c(=O)n(CC(C)(C)C)c2ccc(C3=C[C@@H]4CC[C@H]3CN4C(=O)c3ccon3)nc21  Rattus norvegicus   17 mL/min/kg
2  Cn1c(=O)n(CC(C)(C)C)c2ccc(N3CC4CCC3CN4C(=O)c3cccnc3)nc21 (racemic)  Rattus norvegicus  2.9 mL/min/kg

Lab note: need CL free for Cn1c(=O)n(CC(C)(C)C)c2ccc(N3CC4CCC3CN4C(=O)c3ccccc3)nc21 (racemic) on Rattus norvegicus, anyone have it? 35 mL/min/kg
